- PROTOCOL DESCRIPTION: Kidney concentrations and tissue pharmacokinetics after intravenous C3G
- Type: in vivo, Wistar rats
- EXPERIMENTAL SETUP: male, Wistar, rat, kidney, intravenous, 668 nmol; kidneys vs plasma; read-out: AUC in kidneys relative to plasma
ATTRIBUTE MEASURED: Kp
Lab note: record the figure alone, no unit after it.

# Kp (compound: COc1cc(-c2[o+]c3cc(O)cc(O)c3cc2O[C@@H]2O[C@H](CO)[C@@H](O)[C@H](O)[C@H]2O)ccc1O [PN3G, Peonidin-3-O-β-glucoside] ) is 116

----------
- PROTOCOL DESCRIPTION: Urinary excretion after intravenous C3G
- Type: in vivo, Wistar rats
- EXPERIMENTAL SETUP: 2 min after i.v. 668 nmol C3G
Form field: Urine concentration (one value per entry).
Lab book: enter the figure in pmol/g, no units written.

Recorded results for 5 compounds are shown here.
• COc1cc(-c2[o+]c3cc(O)cc(O)c3cc2O[C@@H]2O[C@H](CO)[C@@H](O)[C@H](O)[C@H]2O)cc(O)c1O [PT3G, Petunidin-3-O-β-glucoside] = 3.30
• COc1cc(-c2[o+]c3cc(O)cc(O)c3cc2O[C@@H]2O[C@H](CO)[C@@H](O)[C@H](O)[C@H]2O)cc(OC)c1O [M3G, Malvidin-3-O-β-glucoside] = 9.57
• OC[C@H]1O[C@@H](Oc2cc3c(O)cc(O)cc3[o+]c2-c2ccc(O)cc2)[C@H](O)[C@@H](O)[C@@H]1O [PG3G, Pelargonidin-3-O-β-glucoside] = 7.92
• OC[C@H]1O[C@@H](Oc2cc3c(O)cc(O)cc3[o+]c2-c2ccc(O)c(O)c2)[C@H](O)[C@@H](O)[C@@H]1O [C3G, Cyanidin-3-O-β-glucoside] = 2690
• COc1cc(-c2[o+]c3cc(O)cc(O)c3cc2O[C@@H]2O[C@H](CO)[C@@H](O)[C@H](O)[C@H]2O)ccc1O [PN3G, Peonidin-3-O-β-glucoside] = 1480

Turning now to a further record.
# Urine concentration (compound: OC[C@H]1O[C@@H](Oc2cc3c(O)cc(O)cc3[o+]c2-c2cc(O)c(O)c(O)c2)[C@H](O)[C@@H](O)[C@@H]1O [D3G, Delphinidin-3-O-β-glucoside] ) is 30

Sourced from paper PMC4786809
